System Name: T1, human IL-33 (R&D Systems, #3625-IL-010/CF) (human, UniProt O95760 112-270)
T1 construct: Commercial recombinant protein; also called hIL-33; interleukin-33
T1 sequence (looked up): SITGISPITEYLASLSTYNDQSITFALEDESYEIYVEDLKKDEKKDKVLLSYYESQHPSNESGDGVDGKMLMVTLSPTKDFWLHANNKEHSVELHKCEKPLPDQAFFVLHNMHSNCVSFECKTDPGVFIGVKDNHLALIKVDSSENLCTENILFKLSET
Measurement Notes: SPR 25C, pH6.0 chase, mAb captured
Outcome Measure: t½ (min)
# output: bare number, implied unit min

Data request: For H4H9670P (antibody, V domains shown, Human IgG4 Fc (H4H)) VH: EVQLVESGGGLVQPGGSLRLSCAASGFTLSSYAMSWVRQAPGKGLEWVSAISGSGGSTYYADSVKGRFTISRDNSKNSLYLQLNSLRAEDTAVYYCAKTLYTTSWYGGFQHWGQGTLVTVSS VL: DIQMTQSPSSVSASIGDRVTITCRASQGISSWLAWYQQKPGKVPKLLIYAASSLQSGFPSRFSGSGSGTDFTLTISSLQPEDFATYYCQQTHSFPWTVGQGTKVEIK , what is its reported t½?
Data returned: 14

Data request: For H4H9629P (antibody, human IgG4, V domains shown, Human IgG4 Fc (H4H)) VH: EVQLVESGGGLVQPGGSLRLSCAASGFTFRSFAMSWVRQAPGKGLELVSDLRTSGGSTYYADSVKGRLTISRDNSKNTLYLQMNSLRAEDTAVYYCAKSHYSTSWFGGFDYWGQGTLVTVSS VL: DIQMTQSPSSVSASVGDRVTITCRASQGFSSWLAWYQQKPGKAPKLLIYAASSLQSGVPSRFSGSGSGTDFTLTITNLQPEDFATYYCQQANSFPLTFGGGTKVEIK , what is its reported t½?
Data returned: 9

Data request: For H4H9659P (antibody, human IgG4, V domains shown, Human IgG4 Fc (H4H)) VH: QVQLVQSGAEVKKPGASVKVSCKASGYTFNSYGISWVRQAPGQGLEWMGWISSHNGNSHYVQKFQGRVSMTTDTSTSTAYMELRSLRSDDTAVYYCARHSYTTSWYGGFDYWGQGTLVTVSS VL: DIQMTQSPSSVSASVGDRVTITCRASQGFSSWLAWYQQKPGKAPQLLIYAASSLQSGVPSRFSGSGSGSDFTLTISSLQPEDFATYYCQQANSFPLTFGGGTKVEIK , what is its reported t½?
Data returned: 17

Data request: For H4H9633P (antibody, human IgG4, V domains shown, Human IgG4 Fc (H4H)) VH: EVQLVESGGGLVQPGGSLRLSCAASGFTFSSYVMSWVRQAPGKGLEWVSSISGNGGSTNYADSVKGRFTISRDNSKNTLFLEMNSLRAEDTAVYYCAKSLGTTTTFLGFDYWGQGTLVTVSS VL: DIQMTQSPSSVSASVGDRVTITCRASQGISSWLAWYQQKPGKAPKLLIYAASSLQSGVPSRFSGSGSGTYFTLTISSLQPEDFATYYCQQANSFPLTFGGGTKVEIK , what is its reported t½?
Data returned: 14

Data request: For H4H9672P (antibody, human IgG4, V domains shown, Human IgG4 Fc (H4H)) VH: EVQLVESGGGLVQPGGSLRLSCAASGFTLRSYVMYWVRQGPGKGLEGVSGISGSSGGTYYTDSVKGRFTISRDNSKNTLFLQMNSLRAEDTAVYFCARSVYSTTWYGGFQHWGQGTLVTVSS VL: DIQMTQSPSSVSVSVGDRVTITCRASQVISSWLAWYQLKPGKAPKLLIYAASSLQSGVPSRFSGSGSGTDFTLTISGLQPEDFAVYYCQQTNSFPLTFGGGTKVEIK , what is its reported t½?
Data returned: 8
